Data origin: patent US4798898A

test system: cough induced by citric acid aerosol in guinea pigs; test: Guinea pig cough test (citric acid aerosol, Charlier procedure); type: in vivo; details: Cavia porcellus, inhaled or nasal, antitussive test not given
assay_readout: ED50 (mg/kg)
Numbers only; they are read as mg/kg.

stdin: Give the value of ED50 reported for the following: `COc1ccccc1OCC1(COc2ccccc2OC)SCCN1C(=O)CSC(C)=O`
stdout: 230

stdin: Item `CCOC(=O)[C@@H]1CSC(COc2ccccc2OC)(COc2ccccc2OC)N1` : provide ED50
stdout: 116

stdin: Could you please provide reported ED50 for COc1ccccc1OCC1SCCN1C(=O)Cn1ccnc1 (stereo not drawn) ? Thanks!
stdout: 40.6

* * *

assay: Acute toxicity in mice; settings: mouse, in vivo, ip
assay_readout: LD50 (mg/kg)
Respond numerically; units are mg/kg and should not be typed.

stdin: State its LD50 for this compound: CCOC(=O)[C@@H]1CSC(COc2ccccc2OC)N1C(=O)CSC(C)=O (stereo partly shown)
stdout: 670

* * *

For each record, write down the corresponding ED50.
system: cough induced by citric acid aerosol in guinea pigs; assay: Guinea pig cough test (citric acid aerosol, Charlier procedure); type: in vivo; conditions: Cavia porcellus, inhaled or nasal, antitussive test not given

stdin: Report the value of ED50 obtained on cough induced by citric acid aerosol in guinea pigs for COc1ccccc1OCC1SCCN1C(=O)CNC(C)=O (stereo not shown) .
stdout: 3 to 30 mg/kg

stdin: With cough induced by citric acid aerosol in guinea pigs as the test system, provide measured ED50 for this compound: COc1ccccc1OCC1SCCN1C(=O)CCNCCNCCO (stereo not shown)
stdout: 3 to 6 mg/kg

stdin: For cough induced by citric acid aerosol in guinea pigs, give the measured ED50 of the entry COc1ccccc1OCC1SCCN1C(=O)OC(C)(C)C (stereo not shown)
stdout: 3 to 30 mg/kg

stdin: Specify the recorded ED50 for O=C(Cn1ccnc1)N1CCSC1COc1ccccc1O (stereo not shown) , system: cough induced by citric acid aerosol in guinea pigs.
stdout: 96 mg/kg

* * *

system: pathological sputum of bronchitic rabbits; test: Mucus regulating properties in bronchitic rabbits (sputum AUC as % compared to bronchitic controls); type: in vivo, male New Zealand white rabbits; details: Table 2; oral, equimolecular amounts to S-carboxymethyl cysteine
Task for the reader: assign each of the following compounds its reported Phospholipids (mg/ml), AUC as a 100% compared to bronchitic controls.
Give the value in % but do not write % after it.

stdin: Complete the entry with Phospholipids (mg/ml), AUC as a 100% compared to bronchitic controls for COc1ccccc1OCC1NCCS1 (stereo not drawn)
stdout: 106

stdin: Quick one: give measured Phospholipids (mg/ml), AUC as a 100% compared to bronchitic controls for CC(=O)SCC(=O)Oc1ccccc1OCC1SCCN1C(=O)CSC(C)=O (stereo not drawn)
stdout: 49.8

stdin: Could you please provide reported Phospholipids (mg/ml), AUC as a 100% compared to bronchitic controls for COc1ccccc1OCC1SCCN1C(=O)Cn1ccnc1 (stereo not drawn) ? Thanks!
stdout: 65.8

stdin: Supply Phospholipids (mg/ml), AUC as a 100% compared to bronchitic controls value. Item: COc1ccccc1OCC1SCCN1C(=O)CSC(C)=O (stereo not drawn)
stdout: 37

stdin: Specify reported Phospholipids (mg/ml), AUC as a 100% compared to bronchitic controls for the compound shown: COc1ccccc1OCC1N[C@H](C(=O)O)CS1 (stereo partly drawn)
stdout: 49

stdin: Write down Phospholipids (mg/ml), AUC as a 100% compared to bronchitic controls measured for item CCOC(=O)C(=O)N1CCSC1COc1ccccc1OC (stereo not drawn)
stdout: 59.8

stdin: Kindly indicate its recorded Phospholipids (mg/ml), AUC as a 100% compared to bronchitic controls. Item: CC(=O)SCC(=O)N1CCSC1COc1ccccc1O (stereo not drawn)
stdout: 47

stdin: Let me know recorded Phospholipids (mg/ml), AUC as a 100% compared to bronchitic controls for CCOC(=O)[C@@H]1CSC(COc2ccccc2OC)N1C(=O)CSC(C)=O (stereo partly drawn) , thanks.
stdout: 102

stdin: State its Phospholipids (mg/ml), AUC as a 100% compared to bronchitic controls for this compound: COc1ccccc1OCC1SCCN1C(=O)C1CC1 (stereo not drawn)
stdout: 74.5
